assay: Plasma pharmacokinetics of BMS-962212 after IV infusion; conditions: human, in vivo, iv, 10 mg h^−1
Measurement Type: AUC(0-t)

*Q* Can you look up the measured AUC(0-t) of CN1CCN(c2cccc3c2CCN(C(=O)/C=C/c2c(-n4cnnn4)ccc(Cl)c2F)[C@@H]3C(=O)Nc2ccc(C(=O)O)cc2)C(=O)C1 for me?
*A* 664 ng·h/mL

====

test: Plasma pharmacokinetics of BMS-962212 after IV infusion; conditions: human, in vivo, iv, 20 mg h^−1
Measurement Type: Tmax (h)
Write the value in h as a bare number.

*Q* Given the entry CN1CCN(c2cccc3c2CCN(C(=O)/C=C/c2c(-n4cnnn4)ccc(Cl)c2F)[C@@H]3C(=O)Nc2ccc(C(=O)O)cc2)C(=O)C1 [BMS‐962212] , report its measured Tmax.
*A* 60
